Target: JAK1 (recombinant purified GST-tagged catalytic domain) (Homo sapiens (Human), UniProt P23458);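 further: biochemical assay with HTRF read-out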
Sequence (P23458 875-1153): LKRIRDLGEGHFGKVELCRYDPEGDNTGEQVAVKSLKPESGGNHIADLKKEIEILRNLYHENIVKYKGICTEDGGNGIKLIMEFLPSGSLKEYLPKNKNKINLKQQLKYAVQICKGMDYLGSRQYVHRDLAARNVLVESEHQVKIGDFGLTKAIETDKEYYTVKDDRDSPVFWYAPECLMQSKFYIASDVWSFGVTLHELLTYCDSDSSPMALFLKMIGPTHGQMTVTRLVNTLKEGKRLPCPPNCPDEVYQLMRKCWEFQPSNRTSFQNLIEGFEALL
Experiment: biochemical
Hi! Just check whether IC50 is below 1 nM. Below gives 1 (yes), equal or above gives 0 (no).

Report whether reported IC50 is lower than 1 nM (strictly) for N#C[C@H]1C[C@@](O)(C2CC2)CC[C@@H]1n1cc(C(N)=O)c(Nc2ccc(Cl)c(F)c2)n1 (single isomer, unassigned) [Example 32-1] 0 (no)

Can you handle COC(=O)c1ccc(Nc2nn([C@H]3CCCC[C@@H]3C#N)cc2C(N)=O)cn1 (single isomer, unassigned) [Example 17-70] next? 0 (no)

Can you handle C[C@H](N[C@@H]1CC[C@H](n2cc(C(N)=O)c(Nc3ccc(Cl)cc3)n2)[C@@H](C#N)C1)C1CC1 (single isomer, unassigned) [Example 28-98] next? 0 (no)

Can you handle CC(C)(C(=O)O)c1ccc(Nc2nn([C@H]3CCC(N4CCC4)C[C@@H]3C#N)cc2C(N)=O)cc1 (single isomer, unassigned) [Example 28-72] next? 1 (yes)

Can you handle N#C[C@H]1C[C@H](O)CCC1n1cc(C(N)=O)c(Nc2ccnc(F)c2)n1 (mixture of isomers) [Example 15] next? 0 (no)

Can you handle CC(C)NC(=O)O[C@@H]1CCC(n2cc(C(N)=O)c(Nc3ccc(F)cc3)n2)[C@@H](C#N)C1 (mixture of isomers) [Example 34-4] next? 0 (no)

Can you handle CC(C)(c1ccc(Nc2nn([C@H]3CC[C@H](O)C[C@@H]3C#N)cc2C(N)=O)cc1)C(O)C(F)(F)F (single isomer, unassigned) [Example 33-16] next? 1 (yes)

Can you handle N#C[C@@H]1CCCC[C@H]1n1cc(C(N)=O)c(Nc2ccc(S(=O)(=O)NCCN3CCOCC3)cc2)n1 (single isomer, unassigned) [Example 17-68] next? 1 (yes)

Can you handle N#C[C@@H]1C[C@@H](NCC2CCC2)CC[C@H]1n1cc(C(N)=O)c(Nc2ccc(C(F)(F)F)cc2)n1 (single isomer, unassigned) [Example 30-16] next? 0 (no)

Can you handle N#C[C@H]1C[C@H](N[C@@H](C2CC2)C(F)(F)F)CC[C@@H]1n1cc(C(N)=O)c(Nc2ccc(C(F)(F)F)cc2)n1 (single isomer, unassigned) [Example 28-195] next? 0 (no)

Data credit: patent US8962608B2
